# melting point per record follows

>>> reported("CCCCCC(=O)NC[C@H]1CNC(=O)O1")
"124 °C"
>>> reported("Cc1cc(Cl)ccc1NC(=S)Nc1ncccc1OCc1c(F)cccc1Cl")
"176 to 177 °C"
>>> reported("N#Cc1c(N)n[nH]c1N1CCN(Cc2ccccc2)CC1")
"157 to 158 °C"
>>> reported("CCCCCCC(c1cccc(C(=O)NC(c2ccccc2)c2ccccc2)c1)c1nnn[nH]1 (stereo not given)")
"198 to 200 °C"
>>> reported("COc1cc(OC)cc(-c2ncn(-c3cc(OC)c(OC)c(OC)c3)c2-c2ccc(OC)c(F)c2)c1")
"157 to 158 °C"

Using the record for `O=C1C(=O)c2ccc(Br)cc2C2=C1SCC1(CCN(Cc3ccc(F)cc3)CC1)O2` , report its melting point.
210 to 211 °C

Entry under review: `Cc1cc(-n2cnc(CO)c2)ccc1C(C)C` . Reported melting point?
98 to 102 °C
